# STUDY SYSTEM: Proteasome Macropain subunit MB1 (Homo sapiens)
# Sequence (P28074 whole entry): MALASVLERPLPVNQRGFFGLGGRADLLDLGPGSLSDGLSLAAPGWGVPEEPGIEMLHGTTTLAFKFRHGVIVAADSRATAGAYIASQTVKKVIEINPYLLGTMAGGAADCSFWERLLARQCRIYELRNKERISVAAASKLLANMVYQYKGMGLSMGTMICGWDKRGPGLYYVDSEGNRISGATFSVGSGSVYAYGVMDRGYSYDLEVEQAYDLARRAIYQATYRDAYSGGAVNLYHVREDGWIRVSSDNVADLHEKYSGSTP
# ASSAY REMARKS: Inhibition of catalytic activity of constitutive proteasome 20s subunit beta5 in human Raji cells incubated for 1 hr by BODIPY(TMR)-NC-005-VS probe based competitive activity based protein profiling assay
# Type: cell-based
pIC50: −log10 of the molar value.
Measured pIC50 by item

Examples from the recorded data:
INSERT INTO assay_data (smi, test_result) VALUES
  ('CC(C)C[C@H](NC(=O)[C@H](Cc1ccccc1)NC(=O)[C@H](CC1CCCCC1)NC(=O)[C@H](Cc1ccccc1)N=[N+]=[N-])C(=O)[C@@]1(C)CO1', '> 8.00'),
  ('C[C@H](NC(=O)[C@H](Cc1ccccc1)NC(=O)[C@@H](NC(=O)[C@H](Cc1ccccc1)N=[N+]=[N-])[C@H](C)OC(C)(C)C)C(=O)[C@@]1(C)CO1', '< 5.00');

Could you now consider this next compound?
Which value of pIC50 has been reported for `Cc1ccc(C[C@H](NC(=O)[C@H](Cc2ccccc2)N=[N+]=[N-])C(=O)N[C@@H](Cc2ccccc2)C(=O)N[C@@H](CC(C)C)C(=O)[C@@]2(C)CO2)cc1` in the records?
> 8.00
